protocol-summary: Quantitative highthroughput screen to assess conditional lethalithy of NOMO1 cells grown in RPMI1640 with untreated serum (RPMI+s) (AID 1963876); also: nearly all actives have a fitted effect of over 35% in size;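 as to viability: 100% = DMSO wells and 0% = empty wells without cells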
experimental-setup: NOMO1 AML cells in RPMI+serum, CellTiter-Glo viability, 48 h; series mostly up to 45.8 µM
Inconclusive results are not listed. Active and inactive are the calls of the source. Calls follow the shape of the dose curve; as a rule, active = well fitted cell-killing curve with a large enough effect; inconclusive = small, poorly fitted or top-dose-only effect; inactive = flat fitted curve, though single readings scatter.
Pick from yes (1) (active), no (0) (inactive) when you respond.

Completed entries (count: 5):
- molecule: "COc1cc(F)c(C(C)C)cc1-c1ccc(C(F)(F)F)cc1CN1C(=O)O[C@H](c2cc(C(F)(F)F)cc(C(F)(F)F)c2)[C@@H]1C"
  answer-label: "no (0)"
- molecule: "NS(=O)(=O)c1cc2c(cc1Cl)NCNS2(=O)=O"
  answer-label: "no (0)"
- molecule: "O=C(O)C(=O)Nc1cccc(C2=NN=N[N]2)c1"
  answer-label: "no (0)"
- molecule: "NC(=O)OCC(COC(N)=O)c1ccccc1"
  answer-label: "no (0)"
- molecule: "O=c1c(-c2ccc(O)cc2)coc2cc(O[C@@H]3O[C@H](CO)[C@H](O)[C@H](O)[C@H]3O)ccc12"
  answer-label: "no (0)"

Moving on to the next molecule.
Task item: Just curious, what result did NC1(Cc2ccc(Cl)cc2)CCN(c2ncnc3[nH]ccc23)CC1 get here?
Reply: yes (1)

* * *

Parameter: viability (% of control). Scope: all listed entries.
protocol-summary: Viability qHTS for spleen associated tyrosine kinase inhibitor (SYKi) naive MV4-11 cells (AID 1963823); also: nearly all actives have a fitted effect of over 40% in size
experimental-setup: MV4-11 AML viability, CellTiter-Glo luminescence, 72 h; series mostly up to 45 µM
Records with an inconclusive call do not appear. Calls of active or inactive are those of the source. Calls follow the shape of the dose curve; as a rule, active = well fitted cell-killing curve with a large enough effect; inconclusive = small, poorly fitted or top-dose-only effect, or effect the other way; inactive = no such curve, though single readings can be large or run the other way.

- compound: "CC1(C)CC[C@]2(C(=O)O[C@@H]3O[C@H](CO)[C@@H](O)[C@H](O)[C@H]3O)CC[C@]3(C)C(=CCC4[C@@]5(C)CC[C@H](O[C@@H]6O[C@H](C(=O)O)[C@@H](O)[C@H](O[C@@H]7O[C@H](CO)[C@H](O)[C@H](O)[C@H]7O)[C@H]6O)C(C)(C)C5CC[C@]43C)C2C1 (some centres not stated)"
  value-reported: "81.1% [at 9.25 µM] (inactive)"

Task item: Given the entry CC1(C)CC[C@]2(C(=O)OC3OC(CO)C(O)C(O)C3O)CC[C@]3(C)C(=CCC4[C@@]5(C)C[C@@H](O)[C@H](OC6OC(C(=O)O)C(O)C(O)C6O)C(C)(C)C5CC[C@]43C)[C@@H]2C1 (some centres not stated) , report its measured viability (% of control).
Reply: 76.2% [at 9.25 µM] (inactive)

* * *

protocol-summary: Cellular viability qHTS for adrenocortical cancer (ACC) cell line NCI-H295R (AID 1963990); also: nearly all actives have a fitted effect of over 60% in size
experimental-setup: CellTiter-Glo ATP luminescence, 48 h; series mostly up to 46.1 µM
Results filed as inconclusive are left out. Activity calls are given as the source filed them. The call rests on the fitted dose curve; in most records, active means well fitted cell-killing curve with a large enough effect; inconclusive means small, poorly fitted or top-dose-only effect; inactive means flat fitted curve, though single readings scatter. Where a SMILES comes first, the peptide text is derived from it.
Pick from active, inactive when you respond.

Completed entries (count: 3):
- compound: "CO[C@H]1/C=C/O[C@@]2(C)Oc3c(C)c(O)c4c(O)c(c5c(c4c3C2=O)=NC2(CCN(CC(C)C)CC2)N=5)NC(=O)/C(C)=C/C=C/[C@H](C)[C@H](O)[C@@H](C)[C@@H](O)[C@@H](C)[C@H](OC(C)=O)[C@@H]1C"
  answer-label: "inactive"
- compound: "CC(=O)N[C@@H](CO)C(=O)N[C@@H](CC(=O)O)C(=O)N[C@@H](CCCCN)C(=O)N1CCC[C@H]1C(=O)O (Ac-SDKP-OH)"
  answer-label: "inactive"
- compound: "NS(=O)(=O)NCCNc1nonc1C(=Nc1ccc(F)c(Br)c1)NO"
  answer-label: "inactive"

Task item: Just curious, what result did CC(C)OC(=O)C(C)(C)Oc1ccc(C(=O)c2ccc(Cl)cc2)cc1 get here?
Reply: inactive

Task item: Let us now turn to COc1ccc2cc(OCC3(C(=O)O)CN(C(=O)c4ccc(F)cc4)C3)ccc2c1
Reply: inactive

Task item: Let us now turn to C[C@@H]1C(=O)O[C@H]2CC34[C@H]5C[C@@H](C(C)(C)C)C36[C@H](OC(=O)[C@@H]6O)O[C@@]4(C(=O)O5)[C@]21O (some centres not stated)
Reply: inactive

Task item: Let us now turn to COc1cc(N2CCC(N(C)C)CC2)ccc1Nc1ncc(Cl)c(Nc2ccccc2P(C)(C)=O)n1
Reply: active
